Consider the following binders; for each one, report its Kd.
Target: T1, human ITGa3 protein (human, UniProt P26006 33-991)
T1 chain: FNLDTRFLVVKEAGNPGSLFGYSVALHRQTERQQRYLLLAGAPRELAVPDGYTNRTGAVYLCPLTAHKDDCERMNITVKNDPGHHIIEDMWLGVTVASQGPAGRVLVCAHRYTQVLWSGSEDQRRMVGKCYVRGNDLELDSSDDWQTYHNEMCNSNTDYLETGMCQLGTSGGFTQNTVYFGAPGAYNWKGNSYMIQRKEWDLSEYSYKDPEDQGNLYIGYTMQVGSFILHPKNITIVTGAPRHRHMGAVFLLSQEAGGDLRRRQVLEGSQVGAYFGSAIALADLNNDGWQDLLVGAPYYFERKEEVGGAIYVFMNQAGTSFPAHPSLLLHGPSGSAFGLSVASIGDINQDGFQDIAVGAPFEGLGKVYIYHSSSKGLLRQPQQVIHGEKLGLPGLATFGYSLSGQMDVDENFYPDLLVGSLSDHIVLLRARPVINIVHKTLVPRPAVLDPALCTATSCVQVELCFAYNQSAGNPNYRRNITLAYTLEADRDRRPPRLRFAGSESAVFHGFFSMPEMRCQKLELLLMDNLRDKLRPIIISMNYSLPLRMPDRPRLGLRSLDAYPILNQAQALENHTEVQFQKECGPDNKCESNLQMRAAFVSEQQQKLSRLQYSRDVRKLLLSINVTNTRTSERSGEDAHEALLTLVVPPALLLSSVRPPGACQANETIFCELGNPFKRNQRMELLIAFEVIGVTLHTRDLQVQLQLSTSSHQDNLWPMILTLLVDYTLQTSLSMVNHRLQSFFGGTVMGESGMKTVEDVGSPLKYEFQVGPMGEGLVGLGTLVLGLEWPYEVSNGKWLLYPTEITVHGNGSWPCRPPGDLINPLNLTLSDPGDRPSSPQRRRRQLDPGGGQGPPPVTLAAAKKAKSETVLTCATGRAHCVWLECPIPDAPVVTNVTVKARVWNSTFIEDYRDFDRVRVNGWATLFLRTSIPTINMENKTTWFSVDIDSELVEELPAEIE
Assay: ELISA; apparent Kd
Value expressed in pM; do not type the unit.

Looking up Lc1/Hc2 (antibody, V domains shown) VH: QVQLVQSGAEVKKPGSSVKVSCKASGYTFTEYIIHWVRQAPGQGLEWIGWFYPESGSVKYNETFKGRATITADKSTSTAYMELSSLRSEDTAVYYCARHEERDYYGYYAMDYWGQGTTVTVSS VL: DIQMTQSPSSLSASVGDRVTITCSASSSISSNYLHWYQQKPGKVPKLLIYRTSNLASGVPSRFSGSGSGTDYTLTISSLQPEDVATYYCQQGSSIPRFTSGGGTKVEIK , I found its Kd recorded as 70

Looking up Lc1/Hc1S (antibody, V domains shown) VH: QVQLVQSGAEVKKPGSSVKVSCKASGYTFTEYIIHWVRQAPGQGLEWIGWFYPESGSVKYSETFKGRATLTADKSTSTAYMELSSLRSEDTAVYYCARHEERDYYGYYAMDYWGQGTTVTVSS VL: DIQMTQSPSSLSASVGDRVTITCSASSSISSNYLHWYQQKPGKVPKLLIYRTSNLASGVPSRFSGSGSGTDYTLTISSLQPEDVATYYCQQGSSIPRFTSGGGTKVEIK , I found its Kd recorded as 180

Looking up Lc2/Hc2A (antibody, V domains shown) VH: QVQLVQSGAEVKKPGSSVKVSCKASGYTFTEYIIHWVRQAPGQGLEWIGWFYPESGSVKYNEAFKGRATITADKSTSTAYMELSSLRSEDTAVYYCARHEERDYYGYYAMDYWGQGTTVTVSS VL: DIQMTQSPSSLSASVGDRVIITCSASSSISSNYLHWYQQKPGKVPKLLIYRTSNLASGVPSRFSGSGSGTDYTLTISSLQPEDVATYYCQQGSSIPRFTSGGGTKVEIK , I found its Kd recorded as 240
